Tested on: CCRF-CEM
Assay: selective drug sensitivity score (sDSS, relative to normal bone marrow) (sDSS (score)); higher = more potent and effective on the cell line relative to normal bone marrow cells;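 also: ALL cell lines in 384-well plates, five doses spanning 10,000-fold, each plate scaled between vehicle and 100 µmol/L benzalkonium chloride controls, sDSS an adapted area-under-curve metric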
Settings: 72 h
Is selective drug sensitivity score at least -0.3? Then 1.0. If not, 0.0.

>>> label_class("C=CC(=O)Nc1cc(Nc2nccc(-c3cn(C)c4ccccc34)n2)c(OC)cc1N(C)CCN(C)C [Osimertinib] (top concentration 2500 nM)")
0.0
>>> label_class("C#Cc1cccc(Nc2ncnc3cc(OCCOC)c(OCCOC)cc23)c1 [Erlotinib] (top concentration 10000 nM)")
1.0
>>> label_class("C[C@@H]1CN(C(=O)c2ccc(NC(=O)c3cc(O[C@H](C)c4c(Cl)ccc(F)c4Cl)c(N)nn3)cc2)C[C@H](C)N1 [Ensartinib] (top concentration 1000 nM)")
0.0
>>> label_class("NC(=O)/C(=C/n1cnc(-c2cc(C(F)(F)F)cc(C(F)(F)F)c2)n1)c1cncnc1 [Eltanexor] (top concentration 10000 nM)")
1.0
>>> label_class("Cc1c2oc3c(C)ccc(C(=O)N[C@@H]4C(=O)N[C@H](C(C)C)C(=O)N5CCC[C@H]5C(=O)N(C)CC(=O)N(C)[C@@H](C(C)C)C(=O)O[C@@H]4C)c3nc-2c(C(=O)N[C@@H]2C(=O)N[C@H](C(C)C)C(=O)N3CCC[C@H]3C(=O)N(C)CC(=O)N(C)[C@@H](C(C)C)C(=O)O[C@@H]2C)c(N)c1=O [Dactinomycin] (top concentration 1000 nM)")
1.0
>>> label_class("COCCNCc1ccc(-c2cc3nccc(Oc4ccc(NC(=O)C5(C(=O)Nc6ccc(F)cc6)CC5)cc4F)c3s2)nc1 [Sitravatinib] (top concentration 2500 nM)")
1.0

====

Tested on: NALM-16
Test: selective drug sensitivity score (sDSS, relative to normal bone marrow) (sDSS (score)); higher = more potent and effective on the cell line relative to normal bone marrow cells
Conditions: 72 h
reported-endpoint: selective drug sensitivity score

>>> value_observed("N#CC1(c2ccc(NC(=O)c3cccnc3NCc3ccncc3)cc2)CCCC1 [Apatinib] (top concentration 10000 nM)")
0
>>> value_observed("CC(C)N(CCCNC(=O)Nc1ccc(C(C)(C)C)cc1)C[C@H]1O[C@@H](n2cc(Br)c3c(N)ncnc32)[C@H](O)[C@@H]1O [SGC0946] (top concentration 10000 nM)")
-0.62
>>> value_observed("Cc1nc(Nc2n[nH]c3c2CN(C(=O)N[C@H](CN(C)C)c2ccccc2)C3(C)C)c2sccc2n1 (top concentration 10000 nM)")
2.58
>>> value_observed("O=C(Nc1cc(Cl)cc2c1[nH]c1cnccc12)c1cccnc1 [PS-1145] (top concentration 25000 nM)")
-0.46
>>> value_observed("CCCCCCCCc1ccc(CCC(N)(CO)CO)cc1 [Fingolimod] (top concentration 10000 nM)")
-0.02
>>> value_observed("O=C(CCCCCCNC(=O)c1cnc(N(c2ccccc2)c2ccccc2)nc1)NO [Rocilinostat] (top concentration 10000 nM)")
3.34
>>> value_observed("CN(C(=O)c1ccc(F)cc1C(F)(F)F)C1CCN(c2nnc(-c3ccnn3C)c3ccccc23)CC1 [Taladegib] (top concentration 10000 nM)")
0.88
>>> value_observed("CCCCCCCCCCCCCCCCCCOP(=O)([O-])OC1CC[N+](C)(C)CC1 [Perifosine] (top concentration 2500 nM)")
-0.36
>>> value_observed("Cc1nc2cccc(N)c2c(=O)n1C1CCC(=O)NC1=O (stereo not drawn) [Avadomide (CC122)] (top concentration 10000 nM)")
0
>>> value_observed("COCC[n+]1c2c(n(Cc3cnccn3)c1C)C(=O)c1ccccc1C2=O [Sepantronium_bromide] (top concentration 10000 nM)")
22.2
>>> value_observed("CCOc1ccn(-c2ccc(F)cc2)c(=O)c1C(=O)Nc1ccc(Oc2ccnc(N)c2Cl)c(F)c1 (top concentration 2500 nM)")
1
>>> value_observed("COc1cc(N2CCN(C)CC2)ccc1Nc1nccc(-c2cn(C)c3cnccc23)n1 [AZ191] (top concentration 10000 nM)")
-3.72
>>> value_observed("CC(C)Nc1cc(-c2c[nH]c(C(=O)N[C@H](CO)c3cccc(Cl)c3)c2)c(Cl)cn1 [Ulixertinib] (top concentration 10000 nM)")
3.22
